Quick reference: IC50 of the listed items.
assayed-system: c-KIT (Homo sapiens)
test-name: AlphaScreen kinase assay with recombinant enzyme, c-KIT
experimental-setup: 100ATP, 8pt, GMean

Q) Return reported IC50; argument: CNC1CCN(Cc2cccc(-c3cnc4[nH]c(-c5ccccc5)cc4c3)n2)C1 (centres unmarked)
A) 0.0001 to 10 µM

Q) Please give the result for CC(C)(C#N)NC(=O)c1cccc(-c2cnc3[nH]c(-c4ccc(F)nc4)cc3c2)n1 too.
A) 50 to 100 µM

====

assayed-system: c-KIT (Homo sapiens, UniProt P10721)
Construct: purchased Millipore 14-559K
Sequence (P10721 26-976): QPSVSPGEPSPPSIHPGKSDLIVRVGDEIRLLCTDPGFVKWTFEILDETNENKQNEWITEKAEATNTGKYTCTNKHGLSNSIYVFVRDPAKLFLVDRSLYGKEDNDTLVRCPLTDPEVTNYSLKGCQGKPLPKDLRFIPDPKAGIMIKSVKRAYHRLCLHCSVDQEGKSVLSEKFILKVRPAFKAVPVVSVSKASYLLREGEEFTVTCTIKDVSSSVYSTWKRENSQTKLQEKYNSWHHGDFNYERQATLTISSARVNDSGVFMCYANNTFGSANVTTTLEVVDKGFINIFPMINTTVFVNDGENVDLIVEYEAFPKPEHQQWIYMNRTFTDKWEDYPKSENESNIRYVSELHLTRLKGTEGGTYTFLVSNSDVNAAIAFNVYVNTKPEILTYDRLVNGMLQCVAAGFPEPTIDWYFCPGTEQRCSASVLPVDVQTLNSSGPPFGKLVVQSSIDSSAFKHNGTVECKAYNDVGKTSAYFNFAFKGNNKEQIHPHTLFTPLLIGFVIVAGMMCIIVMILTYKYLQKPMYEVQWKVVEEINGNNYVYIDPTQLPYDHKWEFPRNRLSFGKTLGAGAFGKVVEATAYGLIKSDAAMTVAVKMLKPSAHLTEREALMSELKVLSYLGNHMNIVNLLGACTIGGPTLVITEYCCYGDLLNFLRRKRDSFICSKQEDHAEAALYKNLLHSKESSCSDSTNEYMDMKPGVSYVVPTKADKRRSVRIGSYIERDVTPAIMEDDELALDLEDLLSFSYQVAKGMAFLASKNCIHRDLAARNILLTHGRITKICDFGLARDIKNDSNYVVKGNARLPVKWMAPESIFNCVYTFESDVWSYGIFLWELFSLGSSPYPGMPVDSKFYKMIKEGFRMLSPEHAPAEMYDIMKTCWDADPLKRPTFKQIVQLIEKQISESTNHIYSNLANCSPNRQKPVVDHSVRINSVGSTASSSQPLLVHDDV
test-name: AlphaScreen kinase assay with recombinant enzyme, c-KIT
Format: biochemical
experimental-setup: 100ATP, 8pt, GMean
A collection of compounds and their measured IC50

- O=C(c1cccc(-c2cnc3[nH]c(-c4ccccc4)cc3c2)n1)N1CCC(CO)CC1: 50 to 100 µM
- N#CC1CCN(C(=O)c2cccc(-c3cnc4[nH]c(-c5ccc(F)cc5)cc4c3)n2)C1 (stereo not drawn): 0.0001 to 10 µM
- O=C(c1cccc(-c2cnc3[nH]c(-c4ccccc4)cc3c2)n1)N1CCC(NC2CC2)C1 (stereo not drawn): 0.0001 to 10 µM
- NCC1CCN(C(=O)c2cccc(-c3cnc4[nH]c(-c5ccccc5)cc4c3)n2)CC1: 0.0001 to 10 µM
- NC(=O)Nc1ccc(-c2cnc3[nH]c(-c4ccccc4)cc3c2)cc1: 0.0001 to 10 µM
- CNC(=O)C1CCN(C(=O)c2cccc(-c3cnc4[nH]c(-c5ccccc5)cc4c3)n2)CC1: 0.0001 to 10 µM

Attention now turns to another entry.
Q) Entry CN(CCC#N)C(=O)c1cccc(-c2cnc3[nH]c(-c4ccccc4)cc3c2)n1 , system c-KIT (Homo sapiens, UniProt P10721): what IC50 was measured?
A) 50 to 100 µM

====

Entries and their IC50
assayed-system: UniProt:P10721
test-name: AlphaScreen kinase assay with recombinant enzyme, c-KIT
experimental-setup: 100ATP, 8pt, GMean

Example entries begin here.
• CS(=O)(=O)NC1CCN(C(=O)c2cccc(-c3cnc4[nH]c(-c5ccccc5)cc4c3)n2)CC1 [Compound P-0032] = 10 to 50 µM
• CNC1CCN(C(=O)c2cccc(-c3cnc4[nH]c(-c5cnn(CC(F)(F)F)c5)cc4c3)n2)C1 (centres unmarked) [Compound P-0061] = 10 to 50 µM
• N=C(N)N1CCN(C(=O)c2cccc(-c3cnc4[nH]c(-c5ccccc5)cc4c3)n2)CC1 [Compound P-0057] = 0.0001 to 10 µM
• CC(C)(C#N)NC(=O)c1cccc(-c2cnc3[nH]c(-c4ccccc4)cc3c2)n1 [Compound P-0118] = 50 to 100 µM
• CCOC(=O)C1CCN(C(=O)c2cccc(-c3cnc4[nH]c(-c5ccccc5)cc4c3)n2)CC1 [Compound P-0025] = 0.0001 to 10 µM

Q) GET /values?readout=IC50&system=UniProt:P10721&item= CON(C)C(=O)c1cccc(-c2cnc3[nH]c(-c4ccccc4)cc3c2)c1 [Compound P-0002]
A) 0.0001 to 10 µM

Q) And for NC1CCN(C(=O)c2c[nH]c3ccc(-c4cnc5[nH]c(-c6ccccc6)cc5c4)cc23)CC1 [Compound P-0042] ?
A) 0.0001 to 10 µM

Q) Here is the next molecule: CNC1CCN(C(=O)c2cccc(-c3cnc4[nH]c(-c5ccccc5)cc4c3)n2)CC1 [Compound P-0041]
A) 0.0001 to 10 µM

Q) Now consider O=S(=O)(NC1CCNCC1)c1cccc(-c2cnc3[nH]c(-c4ccccc4)cc3c2)n1 [Compound P-0086] .
A) 0.0001 to 10 µM

Q) Also, O=C(c1cccc(-c2cnc3[nH]c(-c4ccccc4)cc3c2)n1)N1CC(F)(F)C1 [Compound P-0090] please.
A) 50 to 100 µM

Q) Moving on to CNC1CN(C(=O)c2cccc(-c3cnc4[nH]c(-c5ccccc5)cc4c3)n2)C1 [Compound P-0052]
A) 0.0001 to 10 µM

Q) Field entry: CNC1CCN(C(=O)c2n[nH]c3ccc(-c4cnc5[nH]c(-c6ccccc6)cc5c4)cc23)C1 (centres unmarked) [Compound P-0028]
A) 0.0001 to 10 µM

Q) # iterate: N[C@H]1CCN(C(=O)c2cccc(-c3cnc4[nH]c(-c5ccccc5)cc4c3)c2)C1 [Compound P-0036]
A) 0.0001 to 10 µM

Q) Record: CN[C@@H]1CCN(C(=O)c2ccc(-c3cnc4[nH]c(-c5ccccc5)cc4c3)s2)C1 [Compound P-0106]
A) 0.0001 to 10 µM

Q) Again, but for N[C@H]1CCN(C(=O)c2cccc(-c3cnc4[nH]c(-c5ccccc5)cc4c3)n2)C1 [Compound P-0015]
A) 0.0001 to 10 µM

Q) Another molecule to look at: NC1CCC(NC(=O)c2n[nH]c3ccc(-c4cnc5[nH]c(-c6ccccc6)cc5c4)cc23)CC1 (centres unmarked) [Compound P-0019]
A) 0.0001 to 10 µM

Q) Try this molecule next: O=S(=O)(NC1CNC1)c1cccc(-c2cnc3[nH]c(-c4ccccc4)cc3c2)n1 [Compound P-0071]
A) 10 to 50 µM
